System: NCI-H1993
Assay: relative viability (nuclei count vs DMSO), 5 days (fraction); higher = more cells survive
Settings: first compound 8 µM
Experimental Endpoint: relative viability
Could you respond with only the numeric value?

# input For O=c1cc(-c2cccc3c2Sc2ccccc2S3)oc(N2CCOCC2)c1 + CC(C)C[C@H](NC(=O)[C@H](Cc1ccccc1)NC(=O)c1cnccn1)B(O)O [Bortezomib] (partner 0.002 µM) , what is its reported relative viability?
# output 1.2

# input For O=c1cc(-c2cccc3c2Sc2ccccc2S3)oc(N2CCOCC2)c1 + Nc1ncn([C@H]2C[C@H](O)[C@@H](CO)O2)c(=O)n1 [Decitabine] (partner 2 µM) , what is its reported relative viability?
# output 0.577

# input For O=c1cc(-c2cccc3c2Sc2ccccc2S3)oc(N2CCOCC2)c1 + CC(=O)c1c(C)c2cnc(Nc3ccc(N4CCNCC4)cn3)nc2n(C2CCCC2)c1=O [Palbociclib] (partner 0.5 µM) , what is its reported relative viability?
# output 0.709

# input For O=c1cc(-c2cccc3c2Sc2ccccc2S3)oc(N2CCOCC2)c1 + CCNC(=O)c1noc(-c2cc(C(C)C)c(O)cc2O)c1-c1ccc(CN2CCOCC2)cc1 [Luminespib] (partner 0.01 µM) , what is its reported relative viability?
# output 0.9

# input For O=c1cc(-c2cccc3c2Sc2ccccc2S3)oc(N2CCOCC2)c1 + O=C(CCCCCCC(=O)Nc1ccccc1)NO [Vorinostat] (partner 1 µM) , what is its reported relative viability?
# output 0.736

# input For O=c1cc(-c2cccc3c2Sc2ccccc2S3)oc(N2CCOCC2)c1 + N=C(N)NC(=N)NCCc1ccccc1 [Phenformin] (partner 250 µM) , what is its reported relative viability?
# output 0.56

# input For O=c1cc(-c2cccc3c2Sc2ccccc2S3)oc(N2CCOCC2)c1 + C[C@]1(O)C[C@@H](c2nc(-c3ccc4ccc(-c5ccccc5)nc4c3)c3c(N)nccn32)C1 [Linsitinib] (partner 1 µM) , what is its reported relative viability?
# output 0.859

# input For O=c1cc(-c2cccc3c2Sc2ccccc2S3)oc(N2CCOCC2)c1 + CC1(C)CCC(c2ccc(Cl)cc2)=C(CN2CCN(c3ccc(C(=O)NS(=O)(=O)c4ccc(N[C@H](CCN5CCOCC5)CSc5ccccc5)c(S(=O)(=O)C(F)(F)F)c4)cc3)CC2)C1 [Navitoclax] (partner 0.5 µM) , what is its reported relative viability?
# output 0.871

====

For each record, write down the corresponding relative viability.
System: HARA
Experiment: relative viability (nuclei count vs DMSO), 5 days (fraction); higher = more cells survive
Conditions: first compound 0.01 µM
Could you respond with only the numeric value?

# input For O=c1cc(N2CCOCC2)oc2c(-c3cccc4c3sc3ccccc34)cccc12 + CCNC(=O)c1noc(-c2cc(C(C)C)c(O)cc2O)c1-c1ccc(CN2CCOCC2)cc1 [Luminespib] (partner 0.01 µM) , what is its reported relative viability?
# output 0.682

# input For O=c1cc(N2CCOCC2)oc2c(-c3cccc4c3sc3ccccc34)cccc12 + Cc1cc(Nc2cc(N3CCN(C)CC3)nc(Sc3ccc(NC(=O)C4CC4)cc3)n2)n[nH]1 [Tozasertib] (partner 0.1 µM) , what is its reported relative viability?
# output 0.139

# input For CCN(CC)CCCCNc1ncc2cc(-c3cc(OC)cc(OC)c3)c(NC(=O)NC(C)(C)C)nc2n1 + CC(=O)Nc1cccc(-n2c(=O)n(C3CC3)c(=O)c3c(Nc4ccc(I)cc4F)n(C)c(=O)c(C)c32)c1 [Trametinib] (partner 0.02 µM) , what is its reported relative viability?
# output 0.589

# input For CCN(CC)CCCCNc1ncc2cc(-c3cc(OC)cc(OC)c3)c(NC(=O)NC(C)(C)C)nc2n1 + CCNC(=O)c1noc(-c2cc(C(C)C)c(O)cc2O)c1-c1ccc(CN2CCOCC2)cc1 [Luminespib] (partner 0.01 µM) , what is its reported relative viability?
# output 1.11

# input For CCN(CC)CCCCNc1ncc2cc(-c3cc(OC)cc(OC)c3)c(NC(=O)NC(C)(C)C)nc2n1 + CS(=O)(=O)CCNCc1ccc(-c2ccc3ncnc(Nc4ccc(OCc5cccc(F)c5)c(Cl)c4)c3c2)o1 [Lapatinib] (partner 2 µM) , what is its reported relative viability?
# output 0.833

Data provenance: the supplement of paper PMC10307832
